system.tested: SARS-CoV-2 spike protein trimer, Alpha (B.1.1.7) variant (SARS-CoV-2, UniProt P0DTC2 16-1213)
procedure.details: ELISA, purified IgG
quantity.measured: binding result

* SEQ ID NO 18 (antibody, V domains shown, As m4; also called selected clone from LxC libraries; LxC clone) VH: EVQLVESGGGLVQPGGSLRLSCTVSGFSLSTYAMSWVRQAPGKGLEWIGVIASNADTYYASWAKGRFTISRDNSKNTLYLQMNSLRAEDTAVYYCARHPGSAGYGYAVYYAMDPWGQGTLVTVSS VL: DIQMTQSPSSLSASVGDRVTITCKASEDIRYGLNWYQQKPGKAPKLLIYGGSYLRWGVPSRFSGSGSGTDYTLTISSLQPEDFATYYCQQGYRVPIRFGGGTKVEIK | binds
* SEQ ID NO 12 (antibody, V domains shown, also called selected clone from LxC libraries; LxC clone) VH: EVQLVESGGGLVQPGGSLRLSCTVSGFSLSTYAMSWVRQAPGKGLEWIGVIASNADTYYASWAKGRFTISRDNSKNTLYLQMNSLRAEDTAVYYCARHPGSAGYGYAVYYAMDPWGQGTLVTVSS VL: DIQMTQSPSSLSASVGDRVTITCQASQPIHYAINWYQQKPGKAPKLLIYGTSHRKMGVPSRFSGSGSGTDYTLTISSLQPEDFATYYCQQGYIVALKFGGGTKVEIK | binds
* SEQ ID NO 16 (antibody, V domains shown, As m4) VH: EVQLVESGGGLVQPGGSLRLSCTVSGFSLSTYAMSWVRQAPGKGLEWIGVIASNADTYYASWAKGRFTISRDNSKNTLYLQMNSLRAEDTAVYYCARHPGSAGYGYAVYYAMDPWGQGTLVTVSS VL: DIQMTQSPSSLSASVGDRVTITCQASQDVKYAINWYQQKPGKAPKLLIYGTSSRGEGVPSRFSGSGSGTDYTLTISSLQPEDFATYYCQQGYVVSIFFGGGTKVEIK | binds
